# measurement.target: ΔF508-CFTR (Homo sapiens, UniProt P13569, DEL508-508)
# Construct: host or cells: CFBE41o-, doxycycline-inducible
# Sequence (P13569 with tags, fused parts or gaps DEL508-508): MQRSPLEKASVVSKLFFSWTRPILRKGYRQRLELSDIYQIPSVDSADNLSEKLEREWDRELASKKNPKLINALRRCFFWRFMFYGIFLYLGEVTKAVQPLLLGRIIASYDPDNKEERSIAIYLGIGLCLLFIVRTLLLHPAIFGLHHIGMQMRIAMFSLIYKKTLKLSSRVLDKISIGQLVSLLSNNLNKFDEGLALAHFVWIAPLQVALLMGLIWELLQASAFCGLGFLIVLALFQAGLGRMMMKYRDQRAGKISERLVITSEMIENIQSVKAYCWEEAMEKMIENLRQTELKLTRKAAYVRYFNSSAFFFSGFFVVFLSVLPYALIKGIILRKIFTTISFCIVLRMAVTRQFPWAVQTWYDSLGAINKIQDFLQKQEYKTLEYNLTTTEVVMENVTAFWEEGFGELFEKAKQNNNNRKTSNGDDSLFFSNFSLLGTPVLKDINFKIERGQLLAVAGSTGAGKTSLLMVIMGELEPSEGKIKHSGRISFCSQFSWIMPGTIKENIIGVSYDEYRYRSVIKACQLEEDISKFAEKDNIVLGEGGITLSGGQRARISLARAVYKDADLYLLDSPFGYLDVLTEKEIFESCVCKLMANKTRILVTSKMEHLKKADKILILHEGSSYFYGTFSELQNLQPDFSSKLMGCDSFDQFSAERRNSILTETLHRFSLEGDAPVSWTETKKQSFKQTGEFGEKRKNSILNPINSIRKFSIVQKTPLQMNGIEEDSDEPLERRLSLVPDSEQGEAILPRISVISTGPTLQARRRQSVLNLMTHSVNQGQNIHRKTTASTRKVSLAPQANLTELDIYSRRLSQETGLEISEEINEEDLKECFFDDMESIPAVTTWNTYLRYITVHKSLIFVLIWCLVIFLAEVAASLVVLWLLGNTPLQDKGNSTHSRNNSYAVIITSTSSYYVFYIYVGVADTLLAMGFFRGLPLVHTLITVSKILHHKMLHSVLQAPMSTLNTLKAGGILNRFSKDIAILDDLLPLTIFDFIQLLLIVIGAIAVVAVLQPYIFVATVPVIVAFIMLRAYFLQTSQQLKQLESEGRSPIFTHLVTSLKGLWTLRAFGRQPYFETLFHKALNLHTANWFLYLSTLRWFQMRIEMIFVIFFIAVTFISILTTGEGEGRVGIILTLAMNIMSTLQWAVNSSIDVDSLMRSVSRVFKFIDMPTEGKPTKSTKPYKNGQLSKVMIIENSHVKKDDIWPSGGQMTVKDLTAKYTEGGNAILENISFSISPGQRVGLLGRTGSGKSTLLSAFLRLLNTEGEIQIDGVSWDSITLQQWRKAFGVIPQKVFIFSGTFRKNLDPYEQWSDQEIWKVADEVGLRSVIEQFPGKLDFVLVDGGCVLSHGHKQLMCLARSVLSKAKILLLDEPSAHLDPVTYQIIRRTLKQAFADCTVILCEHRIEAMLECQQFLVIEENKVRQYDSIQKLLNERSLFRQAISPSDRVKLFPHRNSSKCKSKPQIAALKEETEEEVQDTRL
# assay.protocol: CFTR cell surface levels using HRP-tagged ΔF508-CFTR expressing CFBE cells, intrinsic corrector capacity
# Format: cell-based
# Parameters: concentration or dose not given beside the values
# assay.context: HRP-tagged ΔF508-CFTR expressing CFBE41o- cells; compound alone (intrinsic corrector capacity); 20 hours at 33° C.
Readings of % Activation for the listed compounds

Use these answered entries as a reference point.
compound: O=C(NS(=O)(=O)C1CC1)c1cc(N2CCC(N3CCOCC3)CC2)c2c(C3CCC3)nn(-c3ccc(F)cc3)c2n1 [Compound 507]
result: 309.4%
--
compound: CO[C@H]1CC[C@H](Oc2cc(C(=O)NS(C)(=O)=O)nc3c2c(C2CCC2)nn3-c2ccccc2)CC1 [Compound 212]
result: 114.63%
--
compound: COC1CCN(c2cc(C(=O)NS(=O)(=O)CCNC(=O)c3ccccc3C(=O)O)nc3c2c(C2CCC2)nn3-c2ccccc2)CC1 [Compound 174]
result: 347.9%

The compound listed as Cc1nn(-c2cccc(C(F)(F)F)c2)c2nc(C(=O)NS(C)(=O)=O)cc(-c3ccc(N4CCOCC4)cc3)c12 [Compound 8] has a reported % Activation of 270.6%

Quick note, % Activation for CC(C)c1nn(-c2ccc(F)cc2)c2nc(C(=O)NS(C)(=O)=O)cc(N3CCC(C#N)CC3)c12 [Compound 240] landed at 176.67%

Recorded % Activation (compound CN1CCN(c2ccc(-c3cc(C(=O)NS(=O)(=O)N(C)C)nc4c3c(C3CCC3)nn4C3CCCCC3)cn2)CC1 [Compound 551] ): 197.8%

Form: compound = O=C(NS(=O)(=O)N1CCCC1)c1cc(N2CCC(N3CCOCC3)CC2)c2c(C3CCC3)nn(-c3ccc(F)cc3)c2n1 [Compound 485] ; % Activation = 218.55%
